- System: L1210 leukemia ip in BDF1 mice, survival T/C
- Protocol Notes: NCI In Vivo Anticancer Drug Screen. Data for tumor model L1210 Leukemia (intraperitoneal) in B6D2F1 (BDF1) mice
- Condition: endpoint: mean survival time; dose: 100.0 mg/kg/injection; schedule: Q04DX002 (ip); vehicle: Klucel (hydroxypropylcellulose) (HPC); higher = longer survival
Inconclusive results and toxic doses are left out. Peptide text beside a SMILES is read from it. * marks the point of attachment. Boc = CC(C)(C)OC(=O)*
Observable: T/C

IN: I have this molecule here, CN(CCNC(=O)c1ccc(Cl)cc1)c1ccccc1 , and I need its recorded T/C.
OUT: 96 % of control

IN: I have this molecule here, CCCNC(=O)Oc1cccc(C)c1 , and I need its recorded T/C.
OUT: 100 % of control

IN: I have this molecule here, Cc1nc2cc(N=Cc3ccc(N(CCCl)CCCl)cc3F)ccc2n1C , and I need its recorded T/C.
OUT: 104 % of control

IN: I have this molecule here, COC(=O)C(Cc1ccccc1)NC(=O)C(Cc1ccccc1)NC(=O)OC(C)(C)C (stereo not drawn) (Boc-Phe-Phe-OMe; configuration not given here) , and I need its recorded T/C.
OUT: 94 % of control

IN: I have this molecule here, O=C(NC(=S)Nc1ccc(S(=O)(=O)c2ccc(NC(=S)NC(=O)c3ccccc3)cc2)cc1)c1ccccc1 , and I need its recorded T/C.
OUT: 94 % of control

IN: I have this molecule here, Nc1nc(Br)c(Br)nc1C(=O)O , and I need its recorded T/C.
OUT: 100 % of control

More entries:
IN: I have this molecule here, c1ccc(N2CN(c3ccccc3)CN(c3ccccc3)C2)cc1 , and I need its recorded T/C.
OUT: 101 % of control

IN: I have this molecule here, CC(C)(C)NC(=O)NCc1ccccc1Cl , and I need its recorded T/C.
OUT: 96 % of control

IN: I have this molecule here, O=C1NC(=O)c2ccc(Br)c3cccc1c23 , and I need its recorded T/C.
OUT: 96 % of control

IN: I have this molecule here, COc1cc(Cl)ccc1NC(=O)Oc1ccc2ccccc2c1 , and I need its recorded T/C.
OUT: 108 % of control
